Where do these numbers come from? They come from patent US20210122785A1.

- experimental-target: T1, IL-17A (UniProt Q16552 24-155)
- T1 construct: also called Interleukin-17
- T1 sequence (looked up): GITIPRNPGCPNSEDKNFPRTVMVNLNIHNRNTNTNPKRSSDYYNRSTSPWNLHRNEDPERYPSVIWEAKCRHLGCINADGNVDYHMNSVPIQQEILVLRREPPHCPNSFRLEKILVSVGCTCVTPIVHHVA
- measurement-notes: IL-17A binding assay, method analogous to WO 2011/141823; replicate n1
pKi: −log10 of the molar value. Starred links: 1 amine or outer side, 2 acyl side, 3 side chain; linkers in the order of their positions; H or OH if unused. Positions of bridges follow the written chain, without caps; N, C: chain ends. Non-standard residues stand in square brackets, D forms with d. No end group written: not given here. TBMB = c1c(C[*:1])cc(C[*:3])cc1C[*:2]; Dap(Me) = CNC[C@H](N)C(=O)O

binder	pKi
Ac-A[Dap(Me)]PQDLEL[Dap(Me)]TFLFGD[Dap(Me)]A (linker 2-9-16 via TBMB, Bicyclic peptide on a TBMB scaffold; all three cysteines of BCY00008655 replaced by Dap(Me); also called Ac-(28-06)(TBMB) Cys123Dap(Me)) [BCY00008654]	7.00
Ac-A[Dap(Me)]PQDLEL[Dap(Me)]TFLFGDCA (linker 2-9-16 via TBMB, Bicyclic peptide on a TBMB scaffold; first and second cysteines of BCY00008655 replaced by Dap(Me); also called Ac-(28-06)(TBMB) Cys12Dap(Me)) [BCY00008651]	6.53
Ac-A[Dap(Me)]PQDLELCTFLFGD[Dap(Me)]A (linker 2-9-16 via TBMB, Bicyclic peptide on a TBMB scaffold; first and third cysteines of BCY00008655 replaced by Dap(Me); also called Ac-(28-06)(TBMB) Cys13Dap(Me)) [BCY00008653]	6.76
Ac-A[Dap(Me)]PQDLELCTFLFGDCA (linker 2-9-16 via TBMB, Bicyclic peptide on a TBMB scaffold; first cysteine of BCY00008655 replaced by Dap(Me); also called Ac-(28-06)(TBMB) Cys1Dap(Me)) [BCY00008648]	6.90
Ac-ACPQDLELCTFLFGDCA (linker 2-9-16 via TBMB, Bicyclic peptide on a TBMB scaffold; also called Ac-(28-06)(TBMB)) [BCY00008655]	7.10
Ac-ACPQDLEL[Dap(Me)]TFLFGDCA (linker 2-9-16 via TBMB, Bicyclic peptide on a TBMB scaffold; second cysteine of BCY00008655 replaced by Dap(Me); also called Ac-(28-06)(TBMB) Cys2Dap(Me)) [BCY00008649]	7.22
